Tested on: Danio rerio larvae Tg(actc1b:ZsGreen-LC3), 3 dpf
testDescription: LC3 puncta relative area vs vehicle, without NH4Cl (log2 fold change); higher = more autophagosomes
studyConditions: 10 µM; treatment time 16 h; NH4Cl: none
Structures can show the parent of a compound that is named as a salt.
readoutName: LC3 puncta (log2)
Just the number, please.

Prompt: State its LC3 puncta (log2) on Danio rerio larvae Tg(actc1b:ZsGreen-LC3), 3 dpf: COc1ccccc1N1CCN(CC(O)COc2cccc3ccccc23)CC1 (stereo unspecified) [Naftopidil dihydrochloride]
Response: -0.0568

Prompt: Hi! What's the reported LC3 puncta (log2) for COc1cc2nc(N3CCN(C(=O)c4ccco4)CC3)nc(N)c2cc1OC [Prazosin hydrochloride] on Danio rerio larvae Tg(actc1b:ZsGreen-LC3), 3 dpf?
Response: -0.131

Prompt: What measured LC3 puncta (log2) is associated with CC(=O)N[C@@H](Cc1c[nH]c2ccccc12)C(=O)OCc1cc(C(F)(F)F)cc(C(F)(F)F)c1 on Danio rerio larvae Tg(actc1b:ZsGreen-LC3), 3 dpf?
Response: 0.214

Prompt: Provide value of LC3 puncta (log2) for this record tested with Danio rerio larvae Tg(actc1b:ZsGreen-LC3), 3 dpf: O=C(O)c1cc(=O)c2ccccc2[nH]1
Response: 0.00327

Prompt: Could you share what LC3 puncta (log2) was measured for O=C(O)C1=CCCNC1 [Guvacine hydrochloride] , tested on Danio rerio larvae Tg(actc1b:ZsGreen-LC3), 3 dpf?
Response: -0.168

Prompt: Short answer please: LC3 puncta (log2), Danio rerio larvae Tg(actc1b:ZsGreen-LC3), 3 dpf, entry CCOC(=O)C1=C[C@]2(CC)CCCN3CCc4c(n1c1ccccc41)[C@@H]32
Response: 0.406
